endpointName: melting point

compound: Cc1cc(C(=O)O)nc2nc(O)[nH]c(=O)c12
melting point: 266 to 268 °C
//
compound: NC(=S)c1cccc(O)c1
melting point: 152 to 154 °C
//
compound: O=C(O)[C@@H](Cl)c1ccccc1
melting point: 56 to 58 °C
//
compound: O=C(O)CC(C(=O)O)c1ccccc1F (centres undefined)
melting point: 169 to 171 °C
//
compound: Cc1ccccc1-c1cnc(N)s1
melting point: 119 to 121 °C

Tell me its melting point given Sc1nnc(C2CCCCC2)o1 as the entry.
81 to 83 °C

Give the reported melting point for this compound. CC(Oc1cccc(CO)c1)C(=O)O (centres undefined)
95 to 97 °C

Output measured melting point for this item: Nc1ncnc2ccccc12
264 to 266 °C

Return melting point for the following compound: Nc1ccc(-n2cncn2)c(C(F)(F)F)c1
127 to 129 °C

Output melting point of COc1ccc(N)cc1OCC1CCCO1 (centres undefined)
85 to 87 °C

Provide only the value of recorded melting point for O=C(O)c1ccncc1Br
237 to 239 °C

Look up and report measured melting point for this entry: CN(C)C(=O)c1csc(C(=O)CCl)c1
142 to 144 °C

Quick one: give measured melting point for COc1cc2c(cc1OC)C(c1cccs1)NCC2 (centres undefined)
112 to 115 °C

Tell me melting point reported for CC1(C)CCC(CC(=O)O)CC1
45 to 47 °C

Consider the compound Cc1ccc(C)c(OCC(=O)NN)c1 . State its measured melting point.
153 to 155 °C

Identify the reported melting point for the following entry. CC(N)c1ccc(N2CCCC2=O)cc1 (centres undefined)
62 to 64 °C

Look up and report measured melting point for this entry: CC(C)CNC(=O)NC(=O)CCl
105 to 107 °C

For the compound O=C(O)C(F)(F)c1ccc([N+](=O)[O-])cc1 , report melting point.
129 to 131 °C

----------
endpointName: melting point

Provide measured melting point value, entry: COc1ccc(-c2csc(CC#N)n2)cc1
70 to 72 °C

Look up and report measured melting point for this entry: CNC(=O)c1cccnc1Cl
106 to 108 °C

Name the recorded melting point of the compound listed here: O=C(O)CCc1nc(-c2nnc[nH]2)no1
246 to 248 °C

Look up and report measured melting point for this entry: N#Cc1cccc(OCC(=O)O)c1
123 to 125 °C

Provide only the value of recorded melting point for Cc1[nH]c(=O)sc1S(=O)(=O)N1CCCC1C(=O)O (stereo unspecified)
247 to 249 °C

Report measured melting point; entry is O=C(NCc1ccccc1)c1ccccc1O
78 to 82 °C

Look up and state reported melting point for O=C(O)c1cc(C=Cc2ccncc2)nc2ccc(Br)cc12
309 to 311 °C

State, in one line, measured melting point of O=C(O)c1cccc(-c2ncon2)c1
175 to 177 °C

State its melting point for this compound: CC1(c2ccccc2)NC(=O)N(N)C1=O (stereo unspecified)
169 to 171 °C

Name the recorded melting point of the item CC(C)c1ccc(N2Cc3ccc(N)cc3C2)cc1 in your answer.
164 to 166 °C

Return melting point (reported value) for this compound: Cn1cc([N+](=O)[O-])ccc1=O
172 to 174 °C

Give melting point for COc1ccc(N2C(=O)C=CC2=O)c(OC)c1
125 to 127 °C

----------
// reported melting point for each item listed

Would you please look over these solved cases?
compound: Cc1nc(-c2ccc(F)cc2)sc1C(C)O (configuration not stated)
melting point: 113 to 115 °C

compound: Clc1ccc2ccc(Cl)c(Cl)c2n1
melting point: 123 to 125 °C

compound: CC(C)(C)OC(=O)NC(CC(=O)O)c1ccccc1 (configuration not stated)
melting point: 135 to 137 °C

compound: CN(C)Cc1nc(S)c2ccccc2n1
melting point: 131 to 133 °C

compound: O=C1NCCc2c1ccc(Cl)c2Cl
melting point: 200 to 202 °C

compound: CC(C)(C)OC(=O)NCc1ccc(C(=O)O)cc1
melting point: 164 to 166 °C

compound: CSCCC(NC(=O)c1ccccc1Br)C(=O)O (configuration not stated)
melting point: 171 to 173 °C

compound: CC1(c2ccccc2)NC(=O)N(NC(=O)CCl)C1=O (configuration not stated)
melting point: 150 to 152 °C

Please supply the value of reported melting point for the item CC(O)c1nc2ccccc2n1C (configuration not stated)
111 to 113 °C

Retrieve melting point measured for O=C(O)Cc1csc(-c2ccc(Cl)cc2Cl)n1 and print it.
159 to 161 °C

Return value of melting point for input O=C(O)c1csc(C(=O)O)c1 , no commentary.
279 to 281 °C

Indicate its recorded melting point; the compound in question is Cc1ccc(N)c(OCc2ccccc2)c1
68 to 70 °C

Tell us which melting point value is on record for CN(c1ccccc1)S(=O)(=O)c1cccc(NC(=O)CCl)c1
98 to 100 °C

For the compound CC(=O)N1c2ccccc2C[C@H]1C(=O)O , report melting point.
194 to 196 °C

Return melting point (reported value) for this compound: NCC(O)COc1ccc(C(F)(F)F)cc1 (configuration not stated)
98 to 100 °C

----------
endpointName: melting point

compound: Cc1c(F)ccc2c1NC(=O)C2=O
melting point: 139 to 141 °C
--
compound: O=C(O)c1ccc(Cn2nnc3ccccc32)cc1
melting point: 264 to 266 °C

Supply melting point value. Item: CCOC(=O)c1c(C)oc2nc(CCl)nc(N)c12
191 to 195 °C

Give the reported melting point for this compound. CC(C)(C)OC(=O)N1CCCC(C#N)C1 (stereo not drawn)
64 to 66 °C

Write down melting point measured for item Cc1ccccc1NC(=O)C(C)Cl (stereo not drawn)
112 to 114 °C

Answer with reported melting point of Fc1cccc(F)c1-n1ccc(CCl)n1
39 to 41 °C

Please list melting point recorded for the compound CCOC(=O)Cc1nc(-c2ccc(OC)c(OC)c2)no1
75 to 77 °C

Please give measured melting point of the following entry: COc1cc(C#N)cc(Cl)c1O
141 to 143 °C

// fetch melting point given entry NC(=O)c1cccc(OCC(=O)O)c1
206 to 208 °C

----------
endpointName: melting point

Could you please provide reported melting point for NCc1ccc(N2CCN(c3ccccn3)CC2)nc1 ? Thanks!
107 to 109 °C

Give me measured melting point, please, for this compound: O=C(O)c1[nH]nc2cc(OC(F)(F)F)ccc12
261 to 263 °C

Specify reported melting point for the compound shown: CC(Cl)C(=O)Nc1ncc(Cl)cc1Cl (configuration not stated)
113 to 115 °C

Quickly give me recorded melting point for NS(=O)(=O)c1ccc2[nH]c(=O)c(=O)[nH]c2c1
372 to 374 °C

Return melting point (reported value) for this compound: CN1C(=O)CC(C(=O)O)c2ccccc21 (configuration not stated)
162 to 164 °C

Determine from records and report melting point for O=S(=O)(Cl)c1cc(Br)cnc1Cl
61 to 63 °C

Check the records and state melting point for O=C(O)COc1ccc2c3c(c(=O)oc2c1)CCC3
170 to 172 °C

----------
endpointName: melting point

Study these solved cases before continuing.
molecule: O=C(O)c1ncccc1C(F)(F)F
melting point: 107 to 109 °C
//
molecule: CC(=O)c1c(C)[nH]c(C(=O)O)c1C
melting point: 205 to 207 °C
//
molecule: CCCCc1nc2ccccc2[nH]1
melting point: 149 to 151 °C

Assign melting point to the following record: COc1ccc(S(=O)(=O)N(C)C)cc1NC(=O)CCl
152 to 154 °C

Please list melting point recorded for the molecule O=c1[nH]c(-c2cccc(C(F)(F)F)c2)cs1
182 to 184 °C

Check the records and state melting point for CN1CCN(c2ccc(C#N)cn2)CC1
67 to 69 °C

Find the measured melting point of CC(C)COc1ccc(C2(C(=O)O)CCC2)cc1 and report it.
105 to 107 °C

Please report melting point for the following molecule: CC(Sc1nncn1C)C(=O)O (stereo not drawn)
157 to 159 °C

----------
# melting point annotations

compound: Cn1[nH]c(=O)nc1S
melting point: 216 to 220 °C

Please give measured melting point of the following entry: COc1cc(CCl)c(OC)cc1Br
65 to 67 °C

Look up and state reported melting point for CS(=O)(=O)c1ccc2c(c1)CCCN2
112 to 114 °C

Tell me its melting point given CCOC(=O)C(=O)c1nccn1Cc1ccccc1 as the entry.
57 to 59 °C

Identify measured melting point associated with O=C(O)c1ccc(Cc2nnc[nH]2)cc1
219 to 221 °C

Specify melting point for O=C(O)CNc1ccc(Br)cc1 and stop.
154 to 156 °C

Respond only with melting point recorded for O=C(OCCl)OC1CCCCC1
36 to 38 °C

Identify melting point associated with the compound CC(C)(NS(C)(=O)=O)C(=O)O
71 to 73 °C

Input Nc1cc(CCc2ccco2)no1 , output reported melting point.
67 to 69 °C

Source: a melting point compilation (Tetko et al.)
